Molecular target: OAT1 (Mus musculus)
Sequence (Q8VC69 1-545): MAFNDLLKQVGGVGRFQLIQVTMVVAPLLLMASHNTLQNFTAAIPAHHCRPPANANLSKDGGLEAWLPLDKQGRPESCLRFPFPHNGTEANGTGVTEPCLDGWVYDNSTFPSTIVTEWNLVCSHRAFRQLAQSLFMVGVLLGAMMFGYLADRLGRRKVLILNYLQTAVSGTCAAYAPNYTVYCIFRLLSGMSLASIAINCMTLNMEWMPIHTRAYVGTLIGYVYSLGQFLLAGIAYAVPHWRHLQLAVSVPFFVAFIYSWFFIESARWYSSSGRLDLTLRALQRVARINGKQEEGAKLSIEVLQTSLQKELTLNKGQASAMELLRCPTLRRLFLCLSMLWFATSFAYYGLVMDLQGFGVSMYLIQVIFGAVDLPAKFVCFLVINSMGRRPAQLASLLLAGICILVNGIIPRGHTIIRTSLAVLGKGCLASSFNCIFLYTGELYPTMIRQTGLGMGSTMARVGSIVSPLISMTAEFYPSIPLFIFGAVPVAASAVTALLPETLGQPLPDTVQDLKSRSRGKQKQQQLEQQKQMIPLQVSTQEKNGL
Experiment: Uptake inhibition assay in Oat1-transfected CHO cells (6-carboxyfluorescein tracer)
Conditions: read-out: calculated Ki
measure-name: Ki

> print(dat)
                                   molecule  measure.name  test.value
1                  CCCCCC/C=C\CCCCCCCC(=O)O            Ki      200 µM
2  CCCCC[C@H](O)/C=C/[C@H]1[C@H](O)CC(=O)[C@@H]1CCCCCCC(=O)O [prostaglandin E1]            Ki       12 µM
3  Nc1nc2c(c(=O)[nH]1)N=C(CNc1ccc(C(=O)N[C@@H](CCC(=O)O)C(=O)O)cc1)CN2 [dihydrofolic acid]            Ki       93 µM
